# TEST_SYSTEM: VIPR1 (Homo sapiens, UniProt P32241)
# Construct: purchased Promega (in-house HiBiT-GPCR construct library, NanoBRET)
# Sequence (P32241 31-457): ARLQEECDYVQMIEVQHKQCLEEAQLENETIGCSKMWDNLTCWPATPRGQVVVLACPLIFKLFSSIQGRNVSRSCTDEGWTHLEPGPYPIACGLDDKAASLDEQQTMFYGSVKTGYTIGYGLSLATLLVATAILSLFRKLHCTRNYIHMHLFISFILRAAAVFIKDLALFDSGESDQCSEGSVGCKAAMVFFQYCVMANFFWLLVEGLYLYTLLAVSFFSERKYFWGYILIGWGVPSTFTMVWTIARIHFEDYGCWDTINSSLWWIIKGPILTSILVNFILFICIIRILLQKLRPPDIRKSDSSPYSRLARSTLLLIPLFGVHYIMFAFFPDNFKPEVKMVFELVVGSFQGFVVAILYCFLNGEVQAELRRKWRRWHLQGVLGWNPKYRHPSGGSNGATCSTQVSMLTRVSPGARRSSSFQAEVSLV
# TEST_DETAILS: NanoBRET screen HiBiT-VIPR1 in HEK293
# Format: binding
# TEST_SETTINGS: VIPR1; tracer 0.1μM
Recorded NanoBRET Fold Response values for a group of molecules are listed next.
Give the figure only, with no unit attached.

molecule="Cc1cc2c(s1)Nc1ccccc1N=C2N1CCN(CCCNC(=O)CCOCCOCCOCCOCCNC(=O)CCc2ccc3n2[B-](F)(F)[N+]2=C(c4ccc[nH]4)C=CC2=C3)CC1 [Olanzapine-a-2-NB590]" observable="NanoBRET Fold Response" value_observed=1.06
molecule="CCCn1c(=O)c2[nH]c(-c3ccc(OCC(=O)NCCNC(=O)CCOCCNC(=O)c4ccc(CNC(=O)CCc5ccc6n5[B-](F)(F)[N+]5=C(c7ccc[nH]7)C=CC5=C6)cc4)cc3)nc2n(CCC)c1=O [XAC-3-NB590]" observable="NanoBRET Fold Response" value_observed=1.03

Exercise: Specify NanoBRET Fold Response for N#CN=C(NCCCOc1cccc(CN2CCCCC2)c1)NCCNC(=O)CCOCCOCCOCCOCCNC(=O)CCc1ccc2n1[B-](F)(F)[N+]1=C(c3ccc[nH]3)C=CC1=C2 [Aminopotentidine-2-NB590] , system VIPR1 (Homo sapiens, UniProt P32241).
Solution: 1.02

Exercise: Using VIPR1 (Homo sapiens, UniProt P32241) as the test system, report measured NanoBRET Fold Response of CC(C)N(CC[C@H](c1ccccc1)c1cc(CCNC(=O)CCOCCOCCOCCOCCNC(=O)CCc2ccc3n2[B-](F)(F)[N+]2=C(c4ccc[nH]4)C=CC2=C3)ccc1O)C(C)C [Tolterodine-2-NB590] .
Solution: 0.99

Exercise: Report value only: NanoBRET Fold Response, VIPR1 (Homo sapiens, UniProt P32241), O=C(CCOCCOCCOCCOCCNC(=O)CCc1ccc2n1[B-](F)(F)[N+]1=C(c3ccc[nH]3)C=CC1=C2)NCCCN1CCN(C2=Nc3ccccc3Oc3ccc(Cl)cc32)CC1 [Loxapine-a-2-NB590]
Solution: 0.94
